Values were extracted from paper PMC5540273.

System: EPHA4
Settings: concentration: 1 μM, replicates: in singlicate; n = 1;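 note: KINOMEscan kinase panel screen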
Short version: %Inh at least 4% is MET, less is NOT MET.

1. Clc1ccc(-c2cc(-c3c[nH]nc3-c3ccccn3)ccn2)cc1    NOT MET
2. COC(=O)c1c(-c2ccccc2)c2cc(Cl)ccc2c(=O)n1Cc1ccc(S(C)(=O)=O)cc1    MET
3. Cc1cccc(-c2nc(Nc3ccc4[nH]nnc4c3)c3ccccc3n2)n1    NOT MET
4. NC(=O)c1sc(-n2cnc3ccccc32)cc1OCc1ccccc1F    NOT MET
5. Cl.O=S(=O)(c1cccc(F)c1)c1ccc(Nc2ncnc3cc(Br)sc23)cc1Cl    MET
6. Cn1cc(-c2ccc3c(c2)CCN3C(=O)Cc2cccc(C(F)(F)F)c2)c2c(N)ncnc21    NOT MET
7. CS(=O)(=O)CCNCc1ccc(-c2ccc3ncnc(Nc4ccc(OCc5ccccc5)c(Cl)c4)c3c2)o1.Cl    MET

----------
System: ERBB3
Conditions: concentration: 1 μM, replicates: in singlicate; n = 1
Reported %Inh is given for each of the following compounds.
quantity.kind: %Inh (%)

1) Clc1ccc(-c2cc(-c3c[nH]nc3-c3ccccn3)ccn2)cc1    0
2) Fc1ccc(-c2ncn(CCCNCc3ccccc3)c2-c2ccncc2)cc1    23
3) COc1ccc(NC(=O)c2ccc(-c3cc(-c4nnc(C)o4)ccc3C)cc2)cc1    0
4) Clc1cccc(-c2nc(Nc3ccncc3)c3ccccc3n2)c1    46
5) CCC(CC)(CC)n1cnc2c(N)ncnc21    46

----------
Reported %Inh is given for each of the following molecules.
Tested on: TSSK3
Conditions: concentration: 1 μM, replicates: in singlicate; n = 1
quantity.kind: %Inh

1. Cl.c1ccc(Cn2ncc3cc(Nc4ncnc5ccccc45)ccc32)cc1    11%
2. Nc1n[nH]c2nnc(-c3ccccc3)cc12    100%
3. O=C(Nc1ccccc1F)NC1CCN(c2ccnc(Nc3ccc(F)cc3)n2)C1 (stereo not shown)    31%
4. Clc1cccc(-c2nc(Nc3ccncc3)c3ccccc3n2)c1    0%
5. Nc1nc(-c2ccc3c(N)n[nH]c3c2)cc(N2CCC[C@@H](C(=O)Nc3ccccc3)C2)n1.O=C(O)C(F)(F)F.O=C(O)C(F)(F)F    24%
6. COc1ccc(-c2oc3ncnc(N)c3c2-c2ccc(OC)cc2)cc1    22%
7. CNc1nccc(-c2c(-c3ccc(F)cc3)ncn2CCCN2CCOCC2)n1    12%
8. COc1cc2ncnc(Nc3ccc(OCc4ccccc4Br)c(Cl)c3)c2cc1OC.Cl    12%
9. c1ccc(-c2ccc3c(-c4ccnc(Nc5ccc6c(c5)OCCO6)n4)cnn3n2)cc1    18%
10. Nc1nc(-c2ccccn2)c(-c2ccnc3ccccc23)s1    9%
11. CC(C)N1CCC(n2cnc(-c3ccc(F)cc3)c2-c2ccnc(N)n2)CC1    0%
12. C[C@@H]1CCN(C(=O)CO)C[C@@H]1N(C)c1ncnc2[nH]ccc12    0%
13. Cl.c1ccc(Cn2ccc3cc(Nc4ncnc5ccccc45)ccc32)cc1    13%
14. CN1CCC(n2cnc(-c3ccc(F)cc3)c2-c2ccnc(NC3CCNCC3)n2)CC1    43%
15. Cl.Cl.c1ccc(-c2cc3ccncc3cc2OC2CCNCC2)cc1    47%
16. Nc1nc(-c2ccc3c(N)n[nH]c3c2)cc(N2CCCCC2)n1    3%
17. Cl.Cn1ccc(-c2cccc(Nc3ccnc4cc(-c5nccs5)ccc34)c2)n1    6%
18. Nc1nc(-c2cccnc2)c(-c2ccnc3ccccc23)s1    9%
19. CCC(CC)(CC)n1cnc2c(N)ncnc21    3%
20. O=C(NCCCN1CCCC1=O)c1cnc(NCc2cc(Cl)ccc2Cl)nc1NC1CCNCC1    0%
21. COC(=O)c1c(-c2ccccc2)c2cc(Cl)ccc2c(=O)n1Cc1ccc(S(C)(=O)=O)cc1    0%
22. CNc1nccc(-c2c(-c3ccc(F)cc3)ncn2C2CCN(C)CC2)n1    0%
